- EXPERIMENTAL_TARGET: hGLP-1R (Homo sapiens, UniProt P43220)
- Sequence (P43220 24-463): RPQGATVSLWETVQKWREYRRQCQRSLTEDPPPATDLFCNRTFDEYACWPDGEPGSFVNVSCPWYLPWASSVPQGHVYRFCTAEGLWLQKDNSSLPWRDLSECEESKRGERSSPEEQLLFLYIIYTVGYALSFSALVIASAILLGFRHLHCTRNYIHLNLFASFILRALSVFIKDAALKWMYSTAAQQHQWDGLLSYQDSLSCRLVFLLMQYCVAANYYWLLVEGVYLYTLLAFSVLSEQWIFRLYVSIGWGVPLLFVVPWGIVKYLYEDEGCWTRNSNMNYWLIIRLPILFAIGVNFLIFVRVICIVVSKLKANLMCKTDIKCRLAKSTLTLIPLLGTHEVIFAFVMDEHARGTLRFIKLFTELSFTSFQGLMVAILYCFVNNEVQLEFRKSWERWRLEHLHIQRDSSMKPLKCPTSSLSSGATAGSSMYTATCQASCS
- TEST_METHOD_NOTES: cell-based or functional assay
Non-standard residues stand in square brackets, D forms with d. No end group written: not given here. αMePhe(2-F) = C[C@](N)(Cc1ccccc1F)C(=O)O; Aib = CC(C)(N)C(=O)O
cAMP Rel EC50, nM (1% HSA) values by entry
OBSERVED_PROPERTY: cAMP Rel EC50, nM (1% HSA) (nM)

INSERT INTO assay_data (binder, assay_result) VALUES
  ('YXQGTFTSDXSQXLDKKAQXAFIEYLIEAGPSSGAPPPSGSE (Aib, 4Pal, αMeL, Me4Pal; K acylated AEEA-(γGlu)2-C18 diacid; amide; synthetic construct; SITE 2: note = 2-Aminoisobutyric Acid; SITE 10: note = 3-(4-Pyridyl)-L-alanine; SITE 13: note = alpha-methyl-leucine; SITE 17: note = Lysine is chemically modified through conjugation of the epsilon-amino group of the Lysine side chain with (2-[2-(2-Amino-ethoxy)-ethoxy]-acetyl)) [Example 1024]', 330),
  ('YXQGTFTSDXSXXLDXKAQXAFIEYLIAGGPSSGAPPPSGSE (non-natural residues; Lys acylated C18 diacid; C-terminal amide; synthetic construct; SITE 2: note = 2-Aminoisobutyric Acid; SITE 10: note = 3-(4-Pyridyl)-L-alanine; SITE 12: note = L-ornithine; SITE 13: note = alpha-methyl-leucine; SITE 16: note = L-ornithine; SITE 17: note = Lysine is chemically modified through conjugation of the epsilon-amino group of the Lys) [Example 1011]', 148),
  ('YXQGTFTSDXSRXLDKKAQXAFIEXLIEGGPSSGAPPPSGSEE (acylated lysine AEEA-γGlu-C18 diacid; non-natural residues; C-terminal amide; synthetic construct; SITE 2: note = 2-Aminoisobutyric Acid; SITE 10: note = 3-(4-Pyridyl)-L-alanine; SITE 13: note = alpha-methyl-leucine; SITE 17: note = Lysine is chemically modified through conjugation of the epsilon-amino group of the Lysine side chain with (2-[2-(2-Amino-ethoxy)-ethoxy]-acetyl)) [Example 956]', 643),
  ('YXQGTXTSDYSILLDKKAQXAFIEYLEEGGPSSGAPPPS (synthetic construct; SITE 2: note = 2-Aminoisobutyric Acid; SITE 6: note = alpha-methyl-2-fluoro-L-phenylalanine; SITE 17: note = Lysine is chemically modified through conjugation of the epsilon-amino group of the Lysine side chain with (gamma-Glu)2-CO-(CH2)16-CO2H; SITE 20: note = 2-Aminoisobutyric) [Example 406]', 27.8),
  ('YXQGTFTSDFSXXLDKKAQXAFIEWLLEGGPSSGAPPPSGS (synthetic construct; SITE 2: note = 2-Aminoisobutyric Acid; SITE 12: note = L-ornithine; SITE 13: note = alpha-methyl-leucine; SITE 17: note = Lysine is chemically modified through conjugation of the epsilon-amino group of the Lysine side chain with (2-[2-(2-Amino-ethoxy)-ethoxy]-acetyl)-(gamma-Glu)) [Example 168]', 281),
  ('YXQGTXTSDYSILLDKKAQXAFIEYLLEGGPSSGAPPPE (not fully specified; synthetic construct; SITE 2: note = 2-Aminoisobutyric Acid; SITE 6: note = alpha-methyl-2-fluoro-L-phenylalanine; SITE 17: note = Lysine is chemically modified through conjugation of the epsilon-amino group of the Lysine side chain with (2-[2-(2-Amino-ethoxy)-ethoxy]-acetyl)2-(gamma-Glu)-CO-(CH2 )18) [Example 386]', 98.6),
  ('YXQGTFTSDXSQXLDKKAQXAFIEYLIAGGPSSGAPPPSGSEE (non-natural residues; AEEA-γGlu-C18 diacid on Lys; amide; synthetic construct; SITE 2: note = 2-Aminoisobutyric Acid; SITE 10: note = 3-(4-Pyridyl)-L-alanine; SITE 13: note = alpha-methyl-leucine; SITE 17: note = Lysine is chemically modified through conjugation of the epsilon-amino group of the Lysine side chain with (2-[2-(2-Amino-ethoxy)-ethoxy]-acetyl)) [Example 1029]', 170),
  ('YXQGTFTSDFSQXLDKKAQXAFIEYLIEXGESSGAPPPSGS (acylated; synthetic construct; SITE 2: note = 2-Aminoisobutyric Acid; SITE 13: note = alpha-methyl-leucine; SITE 17: note = Lysine is chemically modified through conjugation of the epsilon-amino group of the Lysine side chain with (2-[2-(2-Amino-ethoxy)-ethoxy]-acetyl)-(gamma-Glu)-CO-(CH2) 16-CO2H; SITE 20: n) [Example 232]', 226),
  ('YXQGTXTSDXXIXLDXKAAXEFIEXLIEGGPSSGEPPPSGGGE (synthetic construct; SITE 2: note = 2-Aminoisobutyric Acid; SITE 6: note = alpha-methyl-2-fluoro-L-phenylalanine; SITE 10: note = 3-(4-Pyridyl)-L-alanine; SITE 11: note = alpha-methyl-L-serine; SITE 13: note = alpha-methyl-leucine; SITE 16: note = L-ornithine; SITE 17: note = Lysine is chemically mo) [Example 748]', 22.9),
  ('YXQGTXTSDXXIXLDXIAQXXFIEXLIKGGPSSGEPPPE (not fully specified; synthetic construct; SITE 2: note = 2-Aminoisobutyric Acid; SITE 6: note = alpha-methyl-2-fluoro-L-phenylalanine; SITE 10: note = 3-(4-Pyridyl)-L-alanine; SITE 11: note = alpha-methyl-L-serine; SITE 13: note = alpha-methyl-leucine; SITE 16: note = L-ornithine; SITE 20: note = 2-Aminoisobutyric Acid;) [Example 444]', 54.6),
  ('YXQGTFTSDFSQXLDKKAQXAFIEYLLEXGESSGAPPPSGS (synthetic construct; SITE 2: note = 2-Aminoisobutyric Acid; SITE 13: note = alpha-methyl-leucine; SITE 17: note = Lysine is chemically modified through conjugation of the epsilon-amino group of the Lysine side chain with (2-[2-(2-Amino-ethoxy)-ethoxy]-acetyl)2-(gamma-Glu)-CO-(CH2 )16-CO2H; SITE 20:) [Example 787]', 382),
  ('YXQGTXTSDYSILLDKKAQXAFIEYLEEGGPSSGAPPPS (not fully specified; synthetic construct; SITE 2: note = 2-Aminoisobutyric Acid; SITE 6: note = alpha-methyl-2-fluoro-L-phenylalanine; SITE 17: note = Lysine is chemically modified through conjugation of the epsilon-amino group of the Lysine side chain with (2-[2-(2-Amino-ethoxy)-ethoxy]-acetyl)-(gamma-Glu)-CO-(CH2) 16-) [Example 387]', 26.5),
  ('YXQGTFTSDFSQXLDKKAQXAFIEYLLEXGESSGEPPPSGE (synthetic construct; SITE 2: note = 2-Aminoisobutyric Acid; SITE 13: note = alpha-methyl-leucine; SITE 17: note = Lysine is chemically modified through conjugation of the epsilon-amino group of the Lysine side chain with (2-[2-(2-Amino-ethoxy)-ethoxy]-acetyl)-(gamma-Glu)-CO-(CH2) 16-CO2H; SITE 20: n) [Example 790]', 858),
  ('YXQGTXTSDYSIXLDKKAQXAFIEYLEEGGPSSGAPPPE (synthetic construct; SITE 2: note = 2-Aminoisobutyric Acid; SITE 6: note = alpha-methyl-L-phenylalanine; SITE 13: note = alpha-methyl-leucine; SITE 17: note = Lysine is chemically modified through conjugation of the epsilon-amino group of the Lysine side chain with (2-[2-(2-Amino-ethoxy)-ethoxy]-ace)) [Example 396]', 38.2),
  ('YXQGTFTSDFSQXLDKKAQXAFIEWLLEGGPSSGAPPPEGS (synthetic construct; SITE 2: note = 2-Aminoisobutyric Acid; SITE 13: note = alpha-methyl-leucine; SITE 17: note = Lysine is chemically modified through conjugation of the epsilon-amino group of the Lysine side chain with (2-[2-(2-Amino-ethoxy)-ethoxy]-acetyl)-(gamma-Glu)-CO-(CH2) 16-CO2H; SITE 20: n) [Example 774]', 404),
  ('YXQGTXTSDXSIXLDKKAQXAFIEYLEEGGPSSGAPEPS (synthetic construct; SITE 2: note = 2-Aminoisobutyric Acid; SITE 6: note = alpha-methyl-2-fluoro-L-phenylalanine; SITE 10: note = 3-(4-Pyridyl)-L-alanine; SITE 13: note = alpha-methyl-leucine; SITE 17: note = Lysine is chemically modified through conjugation of the epsilon-amino group of the Lysine) [Example 443]', 34.3),
  ('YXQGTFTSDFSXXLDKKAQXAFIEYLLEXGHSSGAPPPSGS (synthetic construct; SITE 2: note = 2-Aminoisobutyric Acid; SITE 12: note = L-ornithine; SITE 13: note = alpha-methyl-leucine; SITE 17: note = Lysine is chemically modified through conjugation of the epsilon-amino group of the Lysine side chain with (2-[2-(2-Amino-ethoxy)-ethoxy]-acetyl)2-(gamma-Glu)) [Example 181]', 365),
  ('Y[Aib]QGT[αMePhe(2-F)]TSDYSILLDAKAFIEYLEEGGPSSGAPPPSEG-NH2 (not fully specified (residue 17)) [Example 410]', 84.4),
  ('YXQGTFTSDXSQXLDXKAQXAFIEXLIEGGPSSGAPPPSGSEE (non-natural residues, C18 diacid-(γGlu)2 acyl on K, C-terminal amide; synthetic construct; SITE 2: note = 2-Aminoisobutyric Acid; SITE 10: note = 3-(4-Pyridyl)-L-alanine; SITE 13: note = alpha-methyl-leucine; SITE 16: note = L-ornithine; SITE 17: note = Lysine is chemically modified through conjugation of the epsilon-amino group of the Lysine side chain with (gamma-Gl)) [Example 1043]', 268),
  ('YXQGTFTSDXSXXLDKKAQXAFIEYLIAGGESSGAPPPSGSEE (Aib, 4Pal, Orn, αMeL, Me4Pal; acylated Lys; C-terminal amide; synthetic construct; SITE 2: note = 2-Aminoisobutyric Acid; SITE 10: note = 3-(4-Pyridyl)-L-alanine; SITE 12: note = L-ornithine; SITE 13: note = alpha-methyl-leucine; SITE 17: note = Lysine is chemically modified through conjugation of the epsilon-amino group of the Lysine side chain with (gamma-Gl)) [Example 964]', 267);

Origin of the recorded values: patent US20240270821A1
